# System: MRSA ATCC 33592
# ASSAY_DETAILS: MIC, broth microdilution
# Assay type: cell-based
# CONDITION_CONTEXT: Staphylococcus aureus; MRSA ATCC 33592; read-out: MIC
MEASUREMENT_NAME: MIC

C[C@@H]1C[C@H](C)CN(S(=O)(=O)c2ccc(C(=O)Nc3nnc(-c4ccnn4C)o3)cc2)C1 = 4 µg/mL
O=C(Nc1nnc(-c2cccs2)o1)c1ccc(S(=O)(=O)Cc2ccccc2)cc1 = 32 µg/mL

Take each entry in turn and give its MIC.
1. CC1CC(C)CN(S(=O)(=O)c2ccc(C(=O)Nc3nnc(-c4cccs4)o3)cc2)C1 (centres unmarked)
2. COc1cccc(-c2nnc(NC(=O)c3ccc(S(=O)(=O)N4C[C@H](C)C[C@H](C)C4)cc3)o2)c1
3. O=C1CN(S(=O)(=O)c2ccc(C(=O)Nc3nnc(-c4ccc(C(F)(F)F)cc4)o3)cc2)CCN1
4. CN(C)S(=O)(=O)c1ccc(C(=O)Nc2nnc(-c3ccc(F)cc3)o2)cc1
5. O=C(Nc1nnc(-c2cccs2)s1)c1ccc(S(=O)(=O)N2CCCCC2)cc1
6. Cc1cc(C(=O)Nc2nnc(-c3ccc(C(F)(F)F)cc3)o2)ccc1S(=O)(=O)N1C[C@H](C)C[C@H](C)C1

Ans.
1: 2 µg/mL; 2: 2 µg/mL; 3: > 64 µg/mL; 4: 16 µg/mL; 5: 16 µg/mL; 6: 0.25 µg/mL

* * *

# Tested on: C. difficile NR-13435 (isolate 9)
# ASSAY_DETAILS: Clostridium difficile inhibition analysis
# Format: cell-based
# CONDITION_CONTEXT: Table 6, I9
MEASUREMENT_NAME: Clostridium difficile inhibition

CN(c1ccccc1)S(=O)(=O)c1ccc(C(=O)Nc2nnc(-c3ccc(C(F)(F)F)cc3)o2)cc1 = 0.5
C[C@@H]1C[C@H](C)CN(S(=O)(=O)c2ccc(C(=O)Nc3nnc(-c4ccnn4C)o3)cc2)C1 = 0.5
CN[C@H](CC(C)C)C(=O)N[C@H]1C(=O)N[C@@H](CC(N)=O)C(=O)N[C@H]2C(=O)N[C@H]3C(=O)N[C@H](C(=O)N[C@H](C(=O)O)c4cc(O)cc(O)c4-c4cc3ccc4O)[C@H](O)c3ccc(c(Cl)c3)Oc3cc2cc(c3O[C@@H]2O[C@H](CO)[C@@H](O)[C@H](O)[C@H]2O[C@H]2C[C@](C)(N)[C@H](O)[C@H](C)O2)Oc2ccc(cc2Cl)[C@H]1O [Vancomycin, reference compound] = 2

Qu. Give its Clostridium difficile inhibition value. Item: O=C(Nc1nnc(-c2ccc(C(F)(F)F)cc2)o1)c1ccc(S(=O)(=O)Nc2ccccc2)cc1
Ans. 0.5

* * *

Could you please report measured MIC for the items listed next?
# System: S. aureus ATCC 25923
# ASSAY_DETAILS: MIC, broth microdilution
# Type: cell-based
# CONDITION_CONTEXT: Staphylococcus aureus, ATCC25923; S. aureus ATCC 25923; read-out: MIC
One number for each entry, in µg/mL.

CN(C)S(=O)(=O)c1ccc(C(=O)Nc2nnc(-c3ccc(F)cc3)o2)cc1 = 16
CC1CC(C)CN(S(=O)(=O)c2ccc(C(=O)Nc3nnc(-c4cccs4)o3)cc2)C1 (stereo not shown) = 2
CC1CCCCN1S(=O)(=O)c1ccc(C(=O)Nc2nnc(-c3cccs3)o2)cc1 (stereo not shown) = 8
COc1cccc(OC)c1C(=O)N[C@@H]1C(=O)N2[C@@H]1SC(C)(C)[C@@H]2C(=O)O [Methicillin, reference compound] = 2
CC1CC(C)CN(S(=O)(=O)c2ccc(C(=O)Nc3nnc(-c4ccc(Cl)cc4)o3)cc2)C1 (stereo not shown) = 2
COc1cccc(-c2nnc(NC(=O)c3ccc(S(=O)(=O)N(C)CC4CCCO4)cc3)o2)c1 (stereo not shown) = 32

Please look at the following compound next.
Qu. Give its MIC value. Item: O=C(Nc1nnc(-c2cccs2)s1)c1ccc(S(=O)(=O)N2CCCCC2)cc1
Ans. 16

* * *

# System: MRSA ATCC 33592
# ASSAY_DETAILS: MIC, broth microdilution
# Type: cell-based
# CONDITION_CONTEXT: Staphylococcus aureus; MRSA ATCC 33592; read-out: MIC
Could you please report measured log10 MIC for the items listed next?
# values: log10(MIC), units µg/mL

Observe how each entry below is paired with its result.
CN(c1ccccc1)S(=O)(=O)c1ccc(C(=O)Nc2nnc(-c3ccc(C(F)(F)F)cc3)o2)cc1 = -0.60
C[C@@H]1C[C@H](C)CN(S(=O)(=O)c2ccc(C(=O)Nc3nnc(-c4ccc(F)cc4F)o3)cc2)C1 = 0.90
CCCCOc1ccc(-c2nnc(NC(=O)c3ccc(S(=O)(=O)N4C[C@H](C)C[C@H](C)C4)cc3)o2)cc1 = 1.20

Take each entry in turn and give its log10 MIC.
1. Cc1nc(C)c(-c2nnc(NC(=O)c3ccc(S(=O)(=O)N4C[C@H](C)C[C@H](C)C4)cc3)o2)s1
2. C[C@@H]1C[C@H](C)CN(S(=O)(=O)c2ccc(C(=O)Nc3nnc(-c4ccccc4)o3)cc2)C1
3. Cc1cc(C(=O)Nc2nnc(-c3ccc(C(F)(F)F)cc3)o2)ccc1S(=O)(=O)N1CCC(C)CC1
4. Cc1ccc(C(=O)Nc2nnc(-c3ccc(C(F)(F)F)cc3)o2)cc1S(=O)(=O)N1C[C@H](C)C[C@H](C)C1
5. C[C@@H]1C[C@H](C)CN(S(=O)(=O)c2csc(C(=O)Nc3nnc(-c4ccc(C(F)(F)F)cc4)o3)c2)C1
6. O=C(Nc1nnc(-c2ccc(C(F)(F)F)cc2)o1)c1ccc(S(=O)(=O)Nc2ccccc2)cc1
7. CC1CCCCN1S(=O)(=O)c1ccc(C(=O)Nc2nnc(-c3cccs3)o2)cc1 (centres unmarked)

Ans.
1: 0.90; 2: 0.60; 3: -0.30; 4: 0.00; 5: 0.00; 6: 0.60; 7: 0.90

* * *

Could you please report measured log10(MIC) for the items listed next?
# System: VRE
# ASSAY_DETAILS: MIC (Table 5, strain not given)
# Assay type: cell-based
# CONDITION_CONTEXT: Enterococcus; VRE (Table 5)
# values: log10(MIC), units µg/mL

C[C@@H]1C[C@H](C)CN(S(=O)(=O)c2ccc(C(=O)Nc3nnc(-c4cccc(F)c4)o3)cc2)C1 [HSGN-111] = 0.30
C[C@@H]1C[C@H](C)CN(S(=O)(=O)c2ccc(C(=O)Nc3nnc(-c4cccc(C(F)(F)F)c4)o3)cc2)C1 [HSGN-122] = 0.90
C[C@@H]1C[C@H](C)CN(S(=O)(=O)c2ccc(C(=O)Nc3nnc(-c4cccc(Cl)c4)o3)cc2)C1 [HSGN-110] = 0.30

Take each entry in turn and give its log10(MIC).
1. C[C@@H]1C[C@H](C)CN(S(=O)(=O)c2ccc(C(=O)Nc3nnc(-c4ccnn4C)o3)cc2)C1 [HSGN-124]
2. Cc1nc(C)c(-c2nnc(NC(=O)c3ccc(S(=O)(=O)N4C[C@H](C)C[C@H](C)C4)cc3)o2)s1 [HSGN-123]
3. COc1cccc(-c2nnc(NC(=O)c3ccc(S(=O)(=O)N4C[C@H](C)C[C@H](C)C4)cc3)o2)c1 [HSGN-112]

Ans.
1. 2.11
2. 1.81
3. 0.60

Qu. Give its log10(MIC) value. Item: C[C@@H]1C[C@H](C)CN(S(=O)(=O)c2ccc(C(=O)Nc3nnc(-c4ccc(C(F)(F)F)cc4)o3)cc2)C1 [HSGN-94]
Ans. 0.00

* * *

# Test system: C. difficile NR-32895 (P19)
# ASSAY_DETAILS: Clostridium difficile inhibition analysis
# Format: cell-based
# CONDITION_CONTEXT: Table 6, P19
Could you please report measured Clostridium difficile inhibition for the items listed next?
One number for each entry.

Take each entry in turn and give its Clostridium difficile inhibition.
1. CN[C@H](CC(C)C)C(=O)N[C@H]1C(=O)N[C@@H](CC(N)=O)C(=O)N[C@H]2C(=O)N[C@H]3C(=O)N[C@H](C(=O)N[C@H](C(=O)O)c4cc(O)cc(O)c4-c4cc3ccc4O)[C@H](O)c3ccc(c(Cl)c3)Oc3cc2cc(c3O[C@@H]2O[C@H](CO)[C@@H](O)[C@H](O)[C@H]2O[C@H]2C[C@](C)(N)[C@H](O)[C@H](C)O2)Oc2ccc(cc2Cl)[C@H]1O [Vancomycin, reference compound]
2. C[C@@H]1C[C@H](C)CN(S(=O)(=O)c2ccc(C(=O)Nc3nnc(-c4ccnn4C)o3)cc2)C1
3. O=C(Nc1nnc(-c2ccc(C(F)(F)F)cc2)o1)c1ccc(S(=O)(=O)Nc2ccccc2)cc1

Ans.
1. 4
2. 1
3. 0.5

Qu. Give its Clostridium difficile inhibition value. Item: CN(c1ccccc1)S(=O)(=O)c1ccc(C(=O)Nc2nnc(-c3ccc(C(F)(F)F)cc3)o2)cc1
Ans. 0.5

* * *

# Tested on: MRSA ATCC 33592
# ASSAY_DETAILS: MIC, broth microdilution
# Assay type: cell-based
# CONDITION_CONTEXT: Staphylococcus aureus; MRSA ATCC 33592; read-out: MIC
Could you please report measured MIC for the items listed next?

C[C@@H]1C[C@H](C)CN(S(=O)(=O)c2ccc(C(=O)Nc3nnc(-c4cccc(Cl)c4)o3)cc2)C1 = 0.5 µg/mL
C[C@@H]1C[C@H](C)CN(S(=O)(=O)c2ccc(C(=O)Nc3nnc(-c4ccc(C(F)(F)F)cc4)o3)cc2)C1 = 0.25 µg/mL
CC1CC(C)CN(S(=O)(=O)c2ccc(C(=O)Nc3nnc(-c4ccc(Cl)cc4)o3)cc2)C1 (stereo not shown) = 1 µg/mL

Please look at the following compound next.
Qu. Give its MIC value. Item: C[C@@H]1C[C@H](C)CN(S(=O)(=O)c2ccc(C(=O)Nc3ccc4[nH]c(=O)oc4c3)cc2)C1
Ans. > 64 µg/mL
